Test: Half life in rat at 1 mg/kg, iv
Type: ADME, organism-based
Design: dose 1 mg/kg, route intravenous
Conditions: in vivo
MEASUREMENT_LABEL: half-life (min)
Write the value in min as a bare number.

Request: Would you mind telling me what half-life value was observed for Cc1nc2sc(C(=O)NCc3ccncc3)c(N)c2c(C)c1Cl ?
Response: 17.5

----------
Reported EC50 by item:
Biological target: Muscarinic acetylcholine receptor M3 (Homo sapiens, UniProt P20309)
Sequence (P20309 whole entry): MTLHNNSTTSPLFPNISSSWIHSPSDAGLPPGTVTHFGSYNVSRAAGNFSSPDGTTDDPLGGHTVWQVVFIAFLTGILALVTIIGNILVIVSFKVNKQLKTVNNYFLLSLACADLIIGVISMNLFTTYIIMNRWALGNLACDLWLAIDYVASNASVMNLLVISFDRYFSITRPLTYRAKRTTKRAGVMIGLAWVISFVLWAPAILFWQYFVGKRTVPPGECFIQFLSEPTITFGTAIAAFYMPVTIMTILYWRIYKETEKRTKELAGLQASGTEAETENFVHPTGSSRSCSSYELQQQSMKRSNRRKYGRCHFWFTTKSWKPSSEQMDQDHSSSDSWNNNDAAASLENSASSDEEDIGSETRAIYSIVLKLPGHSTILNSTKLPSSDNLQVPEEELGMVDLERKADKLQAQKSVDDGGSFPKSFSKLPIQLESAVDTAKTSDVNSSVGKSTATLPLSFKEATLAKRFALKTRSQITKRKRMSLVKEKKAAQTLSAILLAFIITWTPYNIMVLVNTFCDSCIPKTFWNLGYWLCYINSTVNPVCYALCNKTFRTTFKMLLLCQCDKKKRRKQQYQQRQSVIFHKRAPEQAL
Test: Positive allosteric modulation of human muscarinic M3 receptor expressed in CHO-K1 cells assessed as leftward shift in acetylcholine response treated for 144 secs prior to acetylcholine addition measured for 5 mins by Fluo-4-AM based calcium mobilization assay

Request: Requested read-out: EC50. Entry: Cc1nc2sc(C(=O)NCc3ccncc3)c(N)c2c(C)c1Cl
Response: > 30 µM

Request: How about this molecule: Cc1nc2sc(C(=O)NC3CC3)c(N)c2c(C)c1Cl
Response: > 30 µM
